experiment: qHTS drug screen for cell cycle checkpoint inhibitors in PARPi-resistant BRCA-mutant ovarian cancer cell lines. (AID 1963452); conditions: PEO1/OlaR viability, CellTiter-Glo luminescence, 96 h; measured here: PEO4 Z-AUC; stronger effect = lower value
experimental_endpoint: Z-AUC

CC(C)(C)NCC(O)c1ccc(O)c(CO)c1 (stereo unspecified): 0.881
N[C@@H]1CONC1=O: 1.43
S=C(NCc1ccc2c(c1)OCO2)N1CCN(c2ncnc3c2oc2ccccc23)CC1: 0.0465
CNCc1ccc(-c2[nH]c3cc(F)cc4c3c2CCNC4=O)cc1: 0.848
CC(C[N+](C)(C)C)OC(N)=O (stereo unspecified): 1.64
CCc1cc(Nc2nccc(-c3c(-c4ccc(OC)c(C(=O)Nc5c(F)cccc5F)c4)nc4ccccn34)n2)c(OC)cc1N1CCC(N2CCN(S(C)(=O)=O)CC2)CC1: -0.933
O=C(Nc1nc2ccccc2n1CCN1CCOCC1)c1cccc([N+](=O)[O-])c1: 1.04
NC(=O)c1ccc(-c2nc(-c3ccc4c(c3)OCCO4)c(-c3ccccn3)[nH]2)cc1: 0.167
OC[C@H](Cc1ccccc1)Nc1nc(Oc2ccc3c(c2)CCC3)nc2c1ncn2Cc1ccc(-c2ccccc2)cc1: 0.323
OCCC#Cc1nc(-c2ccc(F)cc2)c(-c2ccncc2)n1CCCc1ccccc1: 0.663

Now turn to the next molecule.
[ask] Hello, please tell me recorded Z-AUC for this one: COc1ccc2c3n(c(=NC(=O)c4cccnc4)nc2c1OC)CCN3
[reply] -0.378

The reported numbers originate from PubChem BioAssay (NCATS).
